System: ddy strain of male mice
procedure_text: Acute toxicity (oral, mice, 7 days observation)
Assay type: in vivo
setup_conditions: 2000 mg/kg oral
reported_endpoint: Acute toxicity: death number of mice/number of mice tested

## Task Find the measured Acute toxicity: death number of mice/number of mice tested of Cc1ccc(NC(=O)N(C)C(=O)N(C)C)cc1 and report it.
## Result 0/4

## Task Find the measured Acute toxicity: death number of mice/number of mice tested of CN(C)C(=O)N(C)C(=O)Nc1ccccc1F and report it.
## Result 4/4

----------
Tested on: ddy strain of male mice
procedure_text: Analgesic activity, acetic acid-induced stretching method
Type: in vivo, mouse (ddy)
setup_conditions: 100 mg/kg oral, 1 hour before acetic acid
reported_endpoint: Analgesic activity, acetic acid-induced stretching method, inhibitory ratio (%)
Kindly answer with a numeric value in %, unit omitted.

## Task Find the measured Analgesic activity, acetic acid-induced stretching method, inhibitory ratio of CN(C)C(=O)N(C)C(=O)Nc1ccccc1F [Compound No. 7, 1,1,3-Trimethyl-5-(2-fluorophenyl)biuret] and report it.
## Result 62.5

## Task Find the measured Analgesic activity, acetic acid-induced stretching method, inhibitory ratio of CCCCN(C)C(=O)N(C)C(=O)Nc1ccccc1 [compound 48, 1,3-Dimethyl-1-n-butyl-5-phenylbiuret] and report it.
## Result 37.5

## Task Find the measured Analgesic activity, acetic acid-induced stretching method, inhibitory ratio of CCN(C(=O)Nc1ccccc1)C(=O)N(C)C [compound 36, 1,1-Dimethyl-3-ethyl-5-phenylbiuret] and report it.
## Result 62.5

## Task Find the measured Analgesic activity, acetic acid-induced stretching method, inhibitory ratio of CN(C)C(=O)N(C)C(=O)Nc1ccc(Cl)cc1Cl [compound 13] and report it.
## Result 50

## Task Find the measured Analgesic activity, acetic acid-induced stretching method, inhibitory ratio of CN(C)C(=O)N(C)C(=O)Nc1c(Cl)cccc1Cl [compound 15] and report it.
## Result 50

## Task Find the measured Analgesic activity, acetic acid-induced stretching method, inhibitory ratio of Cc1cccc(NC(=O)N(C)C(=O)N(C)C)c1 [compound 27, 1,1,3-Trimethyl-5-(3-methylphenyl)biuret] and report it.
## Result 75

## Task Find the measured Analgesic activity, acetic acid-induced stretching method, inhibitory ratio of CCCN(C(=O)Nc1ccccc1)C(=O)N(C)C [compound 37, 1,1-Dimethyl-3-n-propyl-5-phenylbiuret] and report it.
## Result 37.5

## Task Find the measured Analgesic activity, acetic acid-induced stretching method, inhibitory ratio of COc1ccccc1NC(=O)N(C)C(=O)N(C)C [compound 22] and report it.
## Result 37.5

## Task Find the measured Analgesic activity, acetic acid-induced stretching method, inhibitory ratio of CN(C)C(=O)N(C)C(=O)Nc1ccc(N(C)C)cc1 [compound 19] and report it.
## Result 62.5

----------
System: ddy strain of male mice
procedure_text: Acute toxicity (oral, mice, 7 days observation)
Format: in vivo
setup_conditions: 500 mg/kg oral
reported_endpoint: Acute toxicity: death number of mice/number of mice tested

## Task Find the measured Acute toxicity: death number of mice/number of mice tested of CCCNC(=O)NC(=O)N(C)c1ccccc1 and report it.
## Result 1/4

----------
System: Wistar strain of male rats
procedure_text: Anti-pyretic activity (dry-yeast-induced fever)
Type: in vivo, rat (Wistar)
setup_conditions: oral (dose not given), up to 4 hours after administration
reported_endpoint: Anti-pyretic activity, inhibitory ratio (febril index) (%)
Kindly answer with a numeric value in %, unit omitted.

> print(dat)
                                   molecule  numeric.result
1  Cc1ccccc1NC(=O)N(C)C(=O)N(C)C [compound 26, 1,1,3-Trimethyl-5-(2-methylphenyl)biuret]              41
2  CCCCNC(=O)NC(=O)N(C)c1ccccc1 [compound 52, 1-Methyl-1-phenyl-5-n-butylbiuret]             104
3  CCN(C)C(=O)N(C)C(=O)Nc1ccccc1 [Compound No. 45, 1-ethyl-1,3-dimethyl-5-phenylbiuret]              49

Now for the molecule whose Anti-pyretic activity, inhibitory ratio (febril index) we want.
## Task Find the measured Anti-pyretic activity, inhibitory ratio (febril index) of Cc1ccc(NC(=O)N(C)C(=O)N(C)C)cc1C [Compound No. 30] and report it.
## Result 31

----------
procedure_text: Acute toxicity (oral, mice, 7 days observation)
Assay type: in vivo
setup_conditions: mouse, in vivo; oral, male ddy mice, 7 days observation; Δ mark; read-out: 50% lethal dose, LD50
Response field label takes satisfied when LD50 at 168 h is strictly below 1000 mg/kg and not satisfied in all other cases.

Field: example entries. Status: answers known.
> print(dat)
                            cpd.smiles     class.name
1         CNC(=O)N(C)C(=O)N(C)c1ccccc1  not satisfied
2         CNC(=O)N(C(=O)N(C)C)c1ccccc1      satisfied
3            CNC(=O)NC(=O)N(C)c1ccccc1  not satisfied
4        CCNC(=O)N(C)C(=O)N(C)c1ccccc1  not satisfied
5  CN(C)C(=O)N(C(=O)NC1CCCCC1)c1ccccc1  not satisfied
6    CCN(C(=O)N(C)C(=O)NC)c1ccc(OC)cc1  not satisfied

## Task LD50 at 168 h under 1000 mg/kg? Item: CCN(C)C(=O)NC(=O)NCc1ccccc1
## Result not satisfied

## Task LD50 at 168 h under 1000 mg/kg? Item: CC(C)NC(=O)N(C)C(=O)N(C)c1ccccc1
## Result not satisfied

----------
Tested on: ddy strain of male mice
procedure_text: Analgesic activity, acetic acid-induced stretching method
Type: in vivo, mouse (ddy)
setup_conditions: Mus musculus, po, read-out: Analgesic activity, acetic acid-induced stretching method, inhibitory ratio
Each record here notes measured inhibition in vivo at 100 mg/kg.
Kindly answer with a numeric value in %, unit omitted.

> print(dat)
                          cpd.smiles        target.under.test  numeric.result
1    CN(C(=O)Nc1ccccc1)C(=O)N1CCCCC1  ddy strain of male mice            62.5
2       Cc1ccc(NC(=O)NC(=O)N(C)C)cc1  ddy strain of male mice              25
3  CCN(C(=O)N(C)C(=O)NC)c1ccc(Cl)cc1  ddy strain of male mice              75

## Task # lookup: ddy strain of male mice inhibition in vivo at 100 mg/kg, key = CCN(C(=O)N(C)C(=O)NC)c1ccc(OC)cc1
## Result 75

## Task # lookup: ddy strain of male mice inhibition in vivo at 100 mg/kg, key = CC(C)NC(=O)N(C)C(=O)N(C)c1ccccc1
## Result 25

## Task # lookup: ddy strain of male mice inhibition in vivo at 100 mg/kg, key = CCCCN(C)C(=O)NC(=O)Nc1ccccc1
## Result 50

## Task # lookup: ddy strain of male mice inhibition in vivo at 100 mg/kg, key = O=C(NC(=O)N1CCCC1)Nc1ccccc1
## Result 50

## Task # lookup: ddy strain of male mice inhibition in vivo at 100 mg/kg, key = COc1ccc(NC(=O)NC(=O)N(C)C)cc1
## Result 75

----------
System: ddy strain of male mice
procedure_text: Analgesic activity, acetic acid-induced stretching method
Type: in vivo, mouse (ddy)
setup_conditions: Mus musculus, po, read-out: Analgesic activity, acetic acid-induced stretching method, inhibitory ratio
Each record here notes measured inhibition in vivo at 100 mg/kg.
Kindly answer with a numeric value in %, unit omitted.

> print(dat)
                                   compound  numeric.result
1  CN(C(=O)Nc1ccccc1)C(=O)N1CC1 [compound 66, 1,1-Ethylene-3-methyl-5-phenylbiuret]            62.5
2  CCN(C(=O)N(C)C(=O)NC)c1ccccc1 [Compound No. 58, 1-ethyl-3,5-dimethyl-1-phenylbiuret]              75
3  CNC(=O)N(C)C(=O)N(c1ccccc1)c1ccccc1 [compound 65, 1,1-Diphenyl-3,5-dimethylbiuret]            12.5
4  CCCCN(C(=O)N(C)C(=O)NC)c1ccccc1 [compound 64, 1-n-Butyl-1-phenyl-3,5-dimethylbiuret]              25
5  CN(C)C(=O)N(C)C(=O)Nc1ccc(O)cc1 [compound 21]            37.5
6  CCN(CC)C(=O)N(C)C(=O)Nc1ccccc1 [Compound No. 57, 1,1-diethyl-3-methyl-5-phenylbiuret]            37.5
7  CCCN(C(=O)N(C)C(=O)NC)c1ccccc1 [compound 63, 1-n-Propyl-1-phenyl-3,5-dimethylbiuret]              50

## Task # lookup: ddy strain of male mice inhibition in vivo at 100 mg/kg, key = CCN(C(=O)N(C)C(=O)NC)c1ccc(C)cc1 [compound 62]
## Result 62.5

----------
Each record here notes measured Anti-pyretic activity, inhibitory ratio (febril index).
System: Wistar strain of male rats
procedure_text: Anti-pyretic activity (dry-yeast-induced fever)
Assay type: in vivo, rat (Wistar)
setup_conditions: oral (dose not given), up to 4 hours after administration
Kindly answer with a numeric value in %, unit omitted.

> print(dat)
                                    compound           target.under.test  numeric.result
 1  Cc1ccc(NC(=O)N(C)C(=O)N(C)C)cc1 [Compound No. 28, 1,1,3-Trimethyl-5-(4-methylphenyl)biuret]  Wistar strain of male rats              52
 2  CN(C)C(=O)N(C)C(=O)Nc1ccc(Cl)cc1 [Compound No. 12, 1,1,3-Trimethyl-5-(4-chlorophenyl)biuret]  Wistar strain of male rats              84
 3  CCCCN(C(=O)Nc1ccccc1)C(=O)N(C)C [compound 38, 1,1-Dimethyl-3-n-butyl-5-phenylbiuret]  Wistar strain of male rats              18
 4  CN(C)C(=O)N(C)C(=O)Nc1ccccc1Cl [compound 10, 1,1,3-Trimethyl-5-(2-chlorophenyl)biuret]  Wistar strain of male rats              66
 5  CCNC(=O)N(C)C(=O)N(C)c1ccccc1 [compound 54, 1,3-Dimethyl-1-phenyl-5-ethylbiuret]  Wistar strain of male rats              58
 6  CC(C)NC(=O)N(C)C(=O)N(C)c1ccccc1 [compound 56, 1,3-Dimethyl-1-phenyl-5-isopropylbiuret]  Wistar strain of male rats              65
 7  CCN(C(=O)N(C)C(=O)NC)c1ccc(C)cc1 [compound 62]  Wistar strain of male rats              18
 8  CCCCN(C(=O)N(C)C(=O)NC)c1ccccc1 [compound 64, 1-n-Butyl-1-phenyl-3,5-dimethylbiuret]  Wistar strain of male rats              50
 9  CN(C)C(=O)N(C)C(=O)Nc1c(Cl)cccc1Cl [compound 15]  Wistar strain of male rats              29
10  CN(C)C(=O)N(C)C(=O)Nc1ccc([N+](=O)[O-])cc1 [compound 20, 1,1,3-Trimethyl-5-(4-nitrophenyl)biuret]  Wistar strain of male rats              26

## Task Find the measured Anti-pyretic activity, inhibitory ratio (febril index) of CN(C)C(=O)N(C)C(=O)Nc1ccc(F)cc1 [compound 8, 1,1,3-Trimethyl-5-(4-fluorophenyl)biuret] and report it.
## Result 61

## Task Find the measured Anti-pyretic activity, inhibitory ratio (febril index) of CCN(CC)C(=O)N(C)C(=O)Nc1ccccc1 [Compound No. 57, 1,1-diethyl-3-methyl-5-phenylbiuret] and report it.
## Result 19

## Task Find the measured Anti-pyretic activity, inhibitory ratio (febril index) of CN(C(=O)Nc1ccccc1)C(=O)N1CCCC1 [compound 68] and report it.
## Result 24

## Task Find the measured Anti-pyretic activity, inhibitory ratio (febril index) of CCCN(C(=O)N(C)C(=O)NC)c1ccccc1 [compound 63, 1-n-Propyl-1-phenyl-3,5-dimethylbiuret] and report it.
## Result 76

## Task Find the measured Anti-pyretic activity, inhibitory ratio (febril index) of CNC(=O)N(C)C(=O)N(C)c1ccccc1 [Compound No. 53, 1,3,5-Trimethyl-1-phenylbiuret] and report it.
## Result 108

## Task Find the measured Anti-pyretic activity, inhibitory ratio (febril index) of CCCN(C)C(=O)N(C)C(=O)Nc1ccccc1 [compound 46, 1,3-Dimethyl-1-n-propyl-5-phenylbiuret] and report it.
## Result 44
